Source of measurements: patent US20220096649A1

Target: T1, Human SIRPβ (human, UniProt O00241 30-148)
T1 construct: Soluble analyte in SPR
T1 sequence (O00241 30-148): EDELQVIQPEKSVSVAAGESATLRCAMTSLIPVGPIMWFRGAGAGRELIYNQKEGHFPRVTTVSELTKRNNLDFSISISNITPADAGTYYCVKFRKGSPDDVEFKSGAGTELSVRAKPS
Assay: SPR, antibody on GLC chip, SIRP as analyte
result type: pKd
In plain terms, pKd is the concentration in mol/L turned into minus its base-10 logarithm.

## Input Please indicate pKd recorded for Anti-SIRP-α antibody 119, light chain Mut, heavy chain Mut_V34M (antibody, V domains shown, Whole antibody) VH: EVQLLESGGGVVQPGGSLRLSCAASGFSFSNFAMTWVRQAPGKGLEWVSTIGSGDTYYADSVKGRFTISRDNSKNTLYLQMNSLRAEDTAVYYCAKDSTVSWSGDFFDYWGQGTLVTVSS VL: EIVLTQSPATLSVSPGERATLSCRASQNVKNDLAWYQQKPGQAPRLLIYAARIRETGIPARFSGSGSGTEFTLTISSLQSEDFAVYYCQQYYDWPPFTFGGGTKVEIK
## Output 9.47

## Input Please indicate pKd recorded for Anti-SIRP-α antibody 136, light chain wt, heavy chain Mut (antibody, V domains shown, Whole antibody; Heavy chain mut = D1E, R13Q, E16R, M34V, E43K, L111Q) VH: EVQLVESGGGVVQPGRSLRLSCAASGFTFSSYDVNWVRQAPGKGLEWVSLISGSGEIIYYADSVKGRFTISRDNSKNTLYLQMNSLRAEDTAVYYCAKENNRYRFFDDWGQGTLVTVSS VL: ETVLTQSPGTLTLSPGERATLTCRASQSVYTYLAWYQEKPGQAPRLLIYGASSRATGIPDRFSGSGSGTEFTLTISSLQSEDFAVYYCQQYYDRPPLTFGGGTKVEIK
## Output 8.46

## Input Please indicate pKd recorded for Anti-SIRP-α antibody 136, light chain Mut_I2T, heavy chain Mut_V34M (antibody, V domains shown, Whole antibody) VH: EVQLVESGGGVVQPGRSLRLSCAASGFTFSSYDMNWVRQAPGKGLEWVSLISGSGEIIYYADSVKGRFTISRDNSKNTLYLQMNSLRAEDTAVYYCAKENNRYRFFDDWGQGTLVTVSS VL: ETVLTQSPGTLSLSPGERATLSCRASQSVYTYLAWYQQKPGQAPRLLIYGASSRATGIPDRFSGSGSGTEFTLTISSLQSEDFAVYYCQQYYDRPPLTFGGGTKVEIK
## Output 8.66

## Input Please indicate pKd recorded for Anti-SIRP-α antibody 119, light chain wt, heavy chain wt (antibody, V domains shown, Whole antibody (FreeStyle 293-FS, protein A purified)) VH: EVQLLESGGGVVQPGGSLRLSCAASGFSFSNFAMTWVRQAPGEGLEWVSTIGSGDTYYADSVKGRFTISRDNSKNTLYLQMNSLRAEDTAVYYCAKDSTVSWSGDFFDYWGLGTLVTVSS VL: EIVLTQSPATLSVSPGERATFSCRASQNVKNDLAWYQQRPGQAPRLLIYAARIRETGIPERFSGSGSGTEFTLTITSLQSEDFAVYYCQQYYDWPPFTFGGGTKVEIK
## Output 9.47

## Input Please indicate pKd recorded for Hum9/AB21_HC_Mutall (antibody, V domains shown, Whole antibody) VH: EVQLVESGGGVVQPGGSLRLSCAASGFTFSSNAMSWVRQAPGKGLEWVAGISAGGSDTYYPASVKGRFTISRDNSKNTLYLQMNSLRAEDTAVYYCARETWNHLFDYWGQGTLVTVSS VL: SYELTQPPSVSVSPGQTARITCSGGAYSSYYYAWYQQKPGQAPVLVIYSDDKRPSGIPERFSGSSSGTTVTLTISGVQAEDEADYYCGGYDQSSYTNPFGGGTKLTVL
## Output 10.24
